Where these numbers come from: patent US11059801B2

System: NMC-G1
experimentalDetails: Cell viability, ATPlite, 72 hours
Format: cell-based
cond: NMC-G1, 72 hours
measuredEndpoint: IC50

• Cc1sc2c(c1C)C(c1ccc(Cl)cc1)=N[C@@H](CC(=O)OC(C)(C)C)c1nnc(C)n1-2 = 54.8 nM

----------
experimentalSystem: CRBN-DDB1/BRD4 (Homo sapiens (Human), UniProt O60885+Q96SW2)
experimentalDetails: CRBN-DDB1/BRD4 Dimerization Assay
Assay type: binding
cond: Gaussian fit of dimerization signal
Labelling: Dimer Mean reported below -7 becomes YES; at or above becomes NO.

- Cc1sc2c(c1C)C(c1ccc(Cl)cc1)=N[C@@H](CC(=O)NCCOCCOCCNC(=O)COc1cccc3c1C(=O)N(C1CCC(=O)NC1=O)C3=O)c1nnc(C)n1-2 (some centres unmarked): YES
- CC[C@@H]1C(=O)N(C)c2cnc(Nc3ccc(C(=O)NCCCCCCNC(=O)COc4cccc5c4C(=O)N(C4CCC(=O)NC4=O)C5=O)cc3OC)nc2N1C1CCCC1 (some centres unmarked): NO
- Cc1c(C(=O)NCCCCNC(=O)COc2cccc3c2C(=O)N(C2CCC(=O)NC2=O)C3=O)sc2c1C(c1ccc(Cl)cc1)=N[C@@H](CC(=O)NCCCN1CCN(C)CC1)c1nnc(C)n1-2 (some centres unmarked): YES
- COc1cc(C(=O)NCCCCNC(=O)COc2cccc3c2C(=O)N(C2CCC(=O)NC2=O)C3=O)ccc1Nc1ncc2c(n1)N(C)c1ccccc1C(=O)N2C (centres unmarked): NO
- CC[C@@H]1C(=O)N(C)c2cnc(Nc3ccc(C(=O)NCCCCNC(=O)COc4cccc5c4C(=O)N(C4CCC(=O)NC4=O)C5=O)cc3OC)nc2N1C1CCCC1 (some centres unmarked): YES

----------
experimentalSystem: BRD4 adjoined to nanoluciferase (Nluc) (Homo sapiens (Human), UniProt O60885+Q96SW2)
experimentalDetails: BRD4 Dual Luciferase Assay
Assay type: cell-based
cond: concentration at Emax
measuredEndpoint: Conc@Emax (µM)

• Cc1sc2c(c1C)C(c1ccc(Cl)cc1)=N[C@@H](CC(=O)NCCCN1CCN(C(=O)CCCCCNC(=O)COc3cccc4c3C(=O)N(C3CCC(=O)NC3=O)C4=O)CC1)c1nnc(C)n1-2 (stereo partly drawn) = 1.581
• Cc1c(C(=O)NCCCCNC(=O)COc2cccc3c2C(=O)N(C2CCC(=O)NC2=O)C3=O)sc2c1C(c1ccc(Cl)cc1)=N[C@@H](CC(=O)NCCCN1CCN(C)CC1)c1nnc(C)n1-2 (stereo partly drawn) = 50
• Cc1c(C(=O)NCCCCCCCCNC(=O)COc2cccc3c2C(=O)N(C2CCC(=O)NC2=O)C3=O)sc2c1C(c1ccc(Cl)cc1)=N[C@@H](CC(=O)NCCCN1CCN(C)CC1)c1nnc(C)n1-2 (stereo partly drawn) = 15.81
• Cc1c(CC#N)sc2c1C(c1ccc(Cl)cc1)=N[C@@H](CC(=O)NCCCCNC(=O)COc1cccc3c1C(=O)N(C1CCC(=O)NC1=O)C3=O)c1nnc(C)n1-2 (stereo partly drawn) = 15.81
• Cc1sc2c(c1C)C(c1ccc(Cl)cc1)=N[C@@H](CC(=O)NCCNC(=O)COc1cccc3c1C(=O)N(C1CCC(=O)NC1=O)C3=O)c1nnc(C)n1-2 (stereo partly drawn) = 0.5
• Cc1sc2c(c1C)C(c1ccc(Cl)cc1)=N[C@@H](CC(=O)NCCCCCCNC(=O)COc1cccc3c1C(=O)N(C1CCC(=O)NC1=O)C3=O)c1nnc(C)n1-2 (stereo partly drawn) = 1.581

----------
System: MDA-MB-231
experimentalDetails: Cell viability, ATPlite, 72 hours
Format: cell-based
cond: MDA-MB-231, 72 hours
measuredEndpoint: IC50 (nM)

* Cc1sc2c(c1C)C(c1ccc(Cl)cc1)=N[C@@H](CC(=O)OC(C)(C)C)c1nnc(C)n1-2 [JQ1] | 361

----------
experimentalSystem: GST-FKBP12 (36V) (Homo sapiens (Human), UniProt P62942, F36V)
Sequence (P62942 whole entry F37V): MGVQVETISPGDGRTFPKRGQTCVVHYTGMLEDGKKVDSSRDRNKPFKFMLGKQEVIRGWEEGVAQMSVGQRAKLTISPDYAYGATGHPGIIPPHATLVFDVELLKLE
experimentalDetails: FKBP12 Ligand-Displacement AlphaScreen Assay (36V)
Type: binding
cond: read-out: IC50 (nM) FKBP 36V
measuredEndpoint: IC50 (nM)

- COc1ccc(CC[C@@H](OC(=O)[C@@H]2CCCCN2C(=O)Cc2ccccc2)c2cccc(OCC(=O)NCCCCNC(=O)COc3cccc4c3C(=O)N(C3CCC(=O)NC3=O)C4=O)c2)cc1OC (stereo partly shown) [c1FKBP-5]: 2290
- CCC(C)(C)C(=O)C(=O)N1CCC[C@H]1C(=O)O[C@H](CCc1ccc(OC)c(OC)c1)c1cccc(OCC(=O)NCCCCNC(=O)COc2cccc3c2C(=O)N(C2CCC(=O)NC2=O)C3=O)c1 (stereo partly shown) [c1FKBP-3]: 1200
- CC[C@H](C(=O)N1CCCC[C@H]1C(=O)O[C@H](CCc1ccc(OC)c(OC)c1)c1cccc(OCC(=O)NCCCCNC(=O)COc2cccc3c2C(=O)N(C2CCC(=O)NC2=O)C3=O)c1)c1cc(OC)c(OC)c(OC)c1 (stereo partly shown) [c1FKBP*-6]: 311
- CCC(C)(C)C(=O)C(=O)N1CCCC[C@H]1C(=O)O[C@H](CCc1ccc(OC)c(OC)c1)c1cccc(NC(=O)CCC(=O)NCCCCNC(=O)COc2cccc3c2C(=O)N(C2CCC(=O)NC2=O)C3=O)c1 (stereo partly shown) [dFKBP-1]: 237
- CCC(C)(C)C(=O)C(=O)N1CCCC[C@H]1C(=O)O[C@H](CCc1ccc(OC)c(OC)c1)c1cccc(OCC(=O)NCCCCNC(=O)COc2cccc3c2C(=O)N(C2CCC(=O)NC2=O)C3=O)c1 (stereo partly shown) [c1FKBP-4]: 369
- CC[C@H](C(=O)N1CCCC[C@H]1C(=O)O[C@H](CCc1ccc(OC)c(OC)c1)c1cccc(OCC(=O)NCCCCCCNC(=O)COc2cccc3c2C(=O)N(C2CCC(=O)NC2=O)C3=O)c1)c1cc(OC)c(OC)c(OC)c1 (stereo partly shown) [c1FKBP*-8]: 365
- CC[C@H](C(=O)N1CCCC[C@H]1C(=O)O[C@H](CCc1ccc(OC)c(OC)c1)c1cccc(OCC(=O)NCCCOCCOCCOCCCNC(=O)COc2cccc3c2C(=O)N(C2CCC(=O)NC2=O)C3=O)c1)c1cc(OC)c(OC)c(OC)c1 (stereo partly shown) [c1FKBP*-7]: 373

----------
Tested on: SUM185
experimentalDetails: Cell viability, ATPlite, 72 hours
Type: cell-based
cond: SUM185, 72 hours
measuredEndpoint: IC50 (nM)

* Cc1sc2c(c1C)C(c1ccc(Cl)cc1)=N[C@@H](CC(=O)OC(C)(C)C)c1nnc(C)n1-2 | 370

----------
Test system: SUM1315
experimentalDetails: Cell viability, ATPlite, 72 hours
Type: cell-based
cond: SUM1315, 72 hours
measuredEndpoint: IC50 (nM)

- Cc1sc2c(c1C)C(c1ccc(Cl)cc1)=N[C@@H](CC(=O)OC(C)(C)C)c1nnc(C)n1-2: 594

----------
experimentalSystem: CRBN-DDB1/BRD4 (Homo sapiens (Human), UniProt O60885+Q96SW2)
experimentalDetails: CRBN-DDB1/BRD4 Dimerization Assay;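 also: AlphaScreen proximity signal between GST-tagged BRD4 and CRBN-DDB1 with glutathione donor and nickel chelate acceptor beads, read after 1 hr compound incubation at room temperature, values from Gaussian curve fit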
Assay type: binding
cond: Gaussian fit of dimerization signal
measuredEndpoint: Dimer Mean

- Cc1c(C(=O)NCCCCCCCCNC(=O)COc2cccc3c2C(=O)N(C2CCC(=O)NC2=O)C3=O)sc2c1C(c1ccc(Cl)cc1)=N[C@@H](CC(=O)NCCCN1CCN(C)CC1)c1nnc(C)n1-2 (stereo partly shown): −7.374
- Cc1sc2c(c1C)C(c1ccc(Cl)cc1)=N[C@@H](CC(=O)NCCCCCCOc1cccc3c1C(=O)N(C1CCC(=O)NC1=O)C3=O)c1nnc(C)n1-2 (stereo partly shown): −7.756
- Cc1sc2c(c1C)C(c1ccc(Cl)cc1)=N[C@@H](CC(=O)NCCNC(=O)COc1cccc3c1C(=O)N(C1CCC(=O)NC1=O)C3=O)c1nnc(C)n1-2 (stereo partly shown): −7.497
- Cc1sc2c(c1C)C(c1ccc(Cl)cc1)=N[C@@H](CC(=O)NCCCCCCCCOc1cccc3c1C(=O)N(C1CCC(=O)NC1=O)C3=O)c1nnc(C)n1-2 (stereo partly shown): −6.306
- Cc1sc2c(c1C)C(c1ccc(Cl)cc1)=N[C@@H](CC(=O)NCCCCOc1cccc3c1C(=O)N(C1CCC(=O)NC1=O)C3=O)c1nnc(C)n1-2 (stereo partly shown): −7.037
- COc1cc(C(=O)NCCCOCCOCCOCCCNC(=O)COc2cccc3c2C(=O)N(C2CCC(=O)NC2=O)C3=O)ccc1Nc1ncc2c(n1)N(C)c1ccccc1C(=O)N2C (stereo not shown): −6.366
- Cc1sc2c(c1C)C(c1ccc(Cl)cc1)=N[C@@H](CC(=O)NCCCN1CCN(C(=O)CCCCCNC(=O)COc3cccc4c3C(=O)N(C3CCC(=O)NC3=O)C4=O)CC1)c1nnc(C)n1-2 (stereo partly shown): −8.173
- Cc1sc2c(c1C)C(c1ccc(Cl)cc1)=N[C@@H](CC(=O)NCCCOCCOCCOCCCNC(=O)COc1cccc3c1C(=O)N(C1CCC(=O)NC1=O)C3=O)c1nnc(C)n1-2 (stereo partly shown): −7.496
- Cc1sc2c(c1C)C(c1ccc(Cl)cc1)=N[C@@H](CC(=O)NCCOCCOc1cccc3c1C(=O)N(C1CCC(=O)NC1=O)C3=O)c1nnc(C)n1-2 (stereo partly shown): −7.202
- Cc1c(CC#N)sc2c1C(c1ccc(Cl)cc1)=N[C@@H](CC(=O)NCCCCNC(=O)COc1cccc3c1C(=O)N(C1CCC(=O)NC1=O)C3=O)c1nnc(C)n1-2 (stereo partly shown): −7.069
- Cc1sc2c(c1C)C(c1ccc(Cl)cc1)=N[C@@H](CC(=O)NCCCCCCNC(=O)COc1cccc3c1C(=O)N(C1CCC(=O)NC1=O)C3=O)c1nnc(C)n1-2 (stereo partly shown): −6.277
- Cc1sc2c(c1C)C(c1ccc(C#N)cc1)=N[C@@H](CC(=O)NCCCCNC(=O)COc1cccc3c1C(=O)N(C1CCC(=O)NC1=O)C3=O)c1nnc(C)n1-2 (stereo partly shown): −7.422
- CC[C@@H]1C(=O)N(C)c2cnc(Nc3ccc(C(=O)NCCCOCCOCCOCCCNC(=O)COc4cccc5c4C(=O)N(C4CCC(=O)NC4=O)C5=O)cc3OC)nc2N1C1CCCC1 (stereo partly shown): −7.349
